System: MDA-MB-468 breast
assay.procedure: NCI tumour cell line growth inhibition, 48 h
For each entry below, report its GI50 value.

Example cases with answers are listed next.
compound | target.entity | GI50
CCN(Cc1ccccc1)c1ccc(CO)c(Cl)c1 | MDA-MB-468 breast | 0.0202 µM
COc1cc(-c2ccc(-c3ccc(C(=N)N)nc3)s2)cc(OC)c1OC | MDA-MB-468 breast | 1.74 µM
Cc1nc2sc(C(=O)Nc3cccc4ccccc34)c(N)c2cc1C(O)c1ccccc1 (centres undefined) | MDA-MB-468 breast | 0.0351 µM
Cc1c2c(cc[n+]1Cc1ccccc1)c1ccc(OCc3ccccc3)cc1n2Cc1ccccc1 | MDA-MB-468 breast | 0.191 µM
C=CCn1c(SCC(=O)Nc2ccc(C(=O)/C=C/c3cc(OC)c(OC)c(OC)c3)cc2)nnc1-c1c[nH]c2ccccc12 | MDA-MB-468 breast | 1.77 µM

Go through the items and report each one's GI50.
1. CCCN(CCC)c1ccc(/C=C/c2ccc3cc(OCC)ccc3n2)cc1
2. COc1cc(/C=C/C(=O)c2cnn(-c3cc(=O)[nH]c4ccc(Cl)cc34)c2C)cc(OC)c1OC
3. O=S(=O)(NCCCNc1nccc(-c2c(-c3ccc(F)c(O)c3)nc3sccn23)n1)c1ccc(F)cc1
4. O=C(O)c1ccc(Oc2nccc(-c3c(-c4ccc(F)cc4)ncn3C3CCNCC3)n2)cc1

1. 80.1 µM
2. 1.8 µM
3. 2.62 µM
4. > 25 µM
